TESTED TARGET: Human α2δ-1 Subunit of Cav2.2 Calcium Channel (Homo sapiens)
Sequence (P54289 25-1103): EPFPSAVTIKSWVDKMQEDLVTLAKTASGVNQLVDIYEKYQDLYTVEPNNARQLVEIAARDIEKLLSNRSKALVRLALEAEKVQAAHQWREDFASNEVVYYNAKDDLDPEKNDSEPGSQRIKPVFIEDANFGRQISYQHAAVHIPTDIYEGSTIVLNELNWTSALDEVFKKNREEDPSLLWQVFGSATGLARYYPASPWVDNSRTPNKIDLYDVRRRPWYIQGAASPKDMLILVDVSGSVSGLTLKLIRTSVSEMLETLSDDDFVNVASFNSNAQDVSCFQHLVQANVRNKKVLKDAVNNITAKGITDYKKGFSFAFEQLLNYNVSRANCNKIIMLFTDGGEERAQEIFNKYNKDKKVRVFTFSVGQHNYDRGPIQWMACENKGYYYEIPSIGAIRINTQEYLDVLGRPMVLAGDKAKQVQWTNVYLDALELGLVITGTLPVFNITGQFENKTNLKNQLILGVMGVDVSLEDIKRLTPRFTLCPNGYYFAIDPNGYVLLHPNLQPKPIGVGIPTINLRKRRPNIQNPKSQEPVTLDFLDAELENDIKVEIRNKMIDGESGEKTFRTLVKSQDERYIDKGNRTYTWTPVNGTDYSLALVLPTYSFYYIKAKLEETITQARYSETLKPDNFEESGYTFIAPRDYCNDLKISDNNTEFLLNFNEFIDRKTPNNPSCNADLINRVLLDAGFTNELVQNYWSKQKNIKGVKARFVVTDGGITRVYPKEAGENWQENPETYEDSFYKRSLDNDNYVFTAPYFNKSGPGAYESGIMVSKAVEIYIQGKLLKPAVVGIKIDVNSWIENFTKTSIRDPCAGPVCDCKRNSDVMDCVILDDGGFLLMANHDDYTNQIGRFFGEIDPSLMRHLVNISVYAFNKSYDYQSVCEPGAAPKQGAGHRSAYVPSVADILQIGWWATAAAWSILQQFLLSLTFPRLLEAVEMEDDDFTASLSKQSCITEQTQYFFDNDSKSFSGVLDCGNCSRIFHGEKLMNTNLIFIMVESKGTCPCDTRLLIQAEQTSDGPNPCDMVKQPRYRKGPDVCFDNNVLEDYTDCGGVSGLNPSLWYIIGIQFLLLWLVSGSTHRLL
METHOD DESCRIPTION: Binding assay to human α2δ-1 subunit of Cav2.2 calcium channel ([3H]-Gabapentin)
TEST PARAMETERS: Table 1; human α2δ-1 enriched membranes, 15 nM [3H]-Gabapentin; read-out: Ki(nM) alpha2delta Hum
Listed here: items and their measured Ki.

Some solved entries appear below for comparison.
Query block: Which measured Ki value corresponds to CCNc1ncc(C(=O)Nc2cccc(OC(CCNC)c3cccs3)c2)c(N2CCCC2)n1 (stereo not drawn) ?
Result block: 500 to 3000 nM

Query block: Which measured Ki value corresponds to CNCCC(OCc1cccc(N(C)C(=O)c2cnc(SC)nc2)c1)c1ccccc1 (stereo not drawn) ?
Result block: ≥ 3000 nM

Query block: Which measured Ki value corresponds to CNCCC(Oc1cccc(C(=O)Nc2ccccc2)c1)c1cccs1 (stereo not drawn) ?
Result block: 500 to 3000 nM

Query block: Which measured Ki value corresponds to CNCCC(OCc1cccc(N(C)C(=O)c2cncnc2)c1)c1ccccc1 (stereo not drawn) ?
Result block: ≥ 3000 nM

Query block: Which measured Ki value corresponds to CNCCC(Oc1cccc(C(=O)NC2CCN(C)CC2)c1)c1ccccc1 (stereo not drawn) ?
Result block: 500 to 3000 nM

Query block: Which measured Ki value corresponds to CNCCC(Oc1cccc(N(C)C(C)=O)c1)c1cccs1 (stereo not drawn) ?
Result block: ≥ 3000 nM

Next:
Query block: Which measured Ki value corresponds to CNCCC(Oc1cccc(CNC)c1)c1cccs1 (stereo not drawn) ?
Result block: 100 to 500 nM

Query block: Which measured Ki value corresponds to CNCCC(Oc1cccc(C(=O)Nc2ccccc2CN(C)C)c1)c1cccs1 (stereo not drawn) ?
Result block: 500 to 3000 nM

Query block: Which measured Ki value corresponds to CN(C)CCC(OCc1cccc(NC(=O)c2ccccc2)c1)c1cccs1 (stereo not drawn) ?
Result block: ≥ 3000 nM
